- test.system: T1, recombinant human CLEC-1 protein with His Tag (#1704-CL R&D Systems) (human, UniProt Q8NC01 74-280)
- T1 construct: Bought protein; also called His-CLEC1; His Clec-1; not shown: His tag
- T1 sequence: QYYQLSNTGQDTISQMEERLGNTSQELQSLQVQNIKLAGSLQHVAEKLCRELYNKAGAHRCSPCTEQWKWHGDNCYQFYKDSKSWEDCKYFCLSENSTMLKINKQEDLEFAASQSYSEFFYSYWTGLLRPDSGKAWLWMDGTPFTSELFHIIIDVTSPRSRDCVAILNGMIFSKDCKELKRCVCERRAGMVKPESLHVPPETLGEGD
- assay.text: ELISA on immobilised human His-CLEC1 (column hm His Clec); given as ED50
# reported EC50; entries follow

>  <binder>
murine anti-hCLEC1 antibody 11H11-G11 (antibody, V domains shown, Mouse hybridoma antibody) VH: QIHLVQSGPELKKPGETVKISCKASGYTFTNFGMNWVKQAPGKGLKWMGWINTNTGEPTYADDFKGRFAFSLETSASTAYLQINNLKNEDTATYFCARGAPAWFTYWGQGTLVTVSA VL: DIQMTQSPASLSASVGETVTITCRATENIYSYLAWYQQKQGKSPQFLVYNAKTLAEGMPSRFSGSGSGTQFSLKINILQPEDFGTYYCQHHFGTPLTFGAGTKLELK

>  <EC50>
0.00748 µg/mL

$$$$
>  <binder>
murine anti-hCLEC1 antibody 5D1-A5 (antibody, V domains shown, Mouse hybridoma antibody) VH: QVQLKESGPGLVAPSQSLSITCTISGFSLTSYGVHWVRQPPGKGLEWLVVIWSDGSTIYNSALKSRLSISKDNSKSQVFLKMNSLQTDDTAMYYCARHGGYYNYFDYWGQGTTLTVSS VL: DIQMNQSPSSLSASLGDTITITCHASQNINVWLSWYQQKPGNIPKLLIYKASNLHTGVPSRFSGSGSGTGFTLTISSLQPEDIATYYCQQGQSYWTFGGGTKLEIK

>  <EC50>
1.31 µg/mL

$$$$
>  <binder>
murine anti-hCLEC1 antibody 14H9-F3 (antibody, V domains shown, Mouse hybridoma antibody) VH: QVQLKESGPGLVAPSQSLSITCTISGFSLTTYGIHWVRQPPGKGLEWLVVIWSDGSTIYNSALKSRLSISKDNSKSQVFLKMNSLQTDDTAIYYCARHGGYYNYFDYWGQGTTLTVSS VL: DIQMNQSPSSLSASLGDTITITCHASQNINVWLSWYQQKPGNIPKLLIYKASNLHTGVPSRFSGSGSGTTFTLTIDSLQPEDIATYYCQQGQSYWTFGGGTKLEIK

>  <EC50>
0.157 µg/mL

$$$$
>  <binder>
murine anti-hCLEC1 antibody 15E3-G3 (antibody, V domains shown, Mouse hybridoma antibody) VH: QVQLQQSGPELVKPGASVKMSCKASGFTFTDYVIAWVKVRTGQGLEWIGEIYPGSGSIYYNEKFKGKATLTADKSSNTAYMQLSSLTSEDSAVYFCASSTVVAFDYWGQGTTLTVSS VL: EIVLTQSPTTLAASPGEKIIITCSDSSSISSNYLHWYQQKPGFSPKLLIYGTSNLASGVPARFSGSGSGTTYSLTIGTMEAEDVATYYCQQGSSIPRTFGGGTKLEIK

>  <EC50>
0.0466 µg/mL

$$$$
